Data origin: ChEMBL document CHEMBL1201862

Catalogue of GI50 readings, one per entry.
System: HOP-92
assay_summary: NCI tumour cell line growth inhibition, 48 h
The source made the active and inactive calls. Cut-off read from the data, not from the text of the source: active = GI50 up to about 1.1 µM and inactive = higher.

>>> result("O=C1c2ccccc2N2OC3(N4CCCC4)CCCC3C12c1ccccc1 (centres undefined)")
"34.8 µM (inactive)"

Here is another compound to look at.
Record for `O=C(O)Cc1ccc2nc(COC(=O)c3ccccc3)sc2c1` under target or system HOP-92: GI50 reported as > 100 µM (inactive)

----------
Tested on: MOLT-4
assay_summary: NCI tumour cell line growth inhibition, 48 h
Active and inactive are the calls of the source. Rule as the data show it: active = GI50 up to about 1.1 µM and inactive = higher.
Catalogue of GI50 readings, one per entry.

>>> result("CN(C)CCCCN1c2ccccc2Sc2ccc(N=[N+]=[N-])cc21")
"1.39 µM (inactive)"
>>> result("C=C1C(=O)O[C@@H]2/C=C(C)/C=C\\[C@@H]3O[C@@]3(C)C[C@@H](O)C12 (some centres undefined)")
"5.14 µM (inactive)"
>>> result("CN(C)CCNC(=O)Cn1cc([N+](=O)[O-])c(=O)c2ccccc21")
"> 100 µM (inactive)"
>>> result("CCOC(=O)c1cnc2[nH]c(=O)c3ccccc3n2c1=O")
"> 100 µM (inactive)"
>>> result("CN(c1nc(=[N+](C)C)ss1)C1CCCCC1")
"95.1 µM (inactive)"
>>> result("CCSc1ncnc2c(C3OC(CO)C(O)C3O)nsc12 (centres undefined)")
"> 100 µM (inactive)"

Item: COc1ccc2c(c1)C(=O)C1(C2)[C@H](c2ccccc2)C2C(=O)c3cc(OC)ccc3C2[C@H]1c1ccccc1 (some centres undefined) | GI50: > 100 µM (inactive)

Item: COC(=O)c1cc2c(cc1CC(Cc1ccc3c(c1)CCCC3)C(=O)OC)CCCC2 (centres undefined) | GI50: 42.1 µM (inactive)

Item: `Cn1c(=O)c2c(ncn2CCCCn2ccnc2[N+](=O)[O-])n(C)c1=O` | GI50: > 100 µM (inactive)

Item: `O=C1/C(=C\c2ccc(F)cc2)CCOc2c1ccc1ccccc21` | GI50: 7.67 µM (inactive)

Item: `O=c1c2cc(I)ccc2nc(-c2cccs2)n1Nc1ccccc1` | GI50: 8.17 µM (inactive)

Item: CC(=O)OCC1OC(n2c3c(cc(C#N)c2=S)CCCCCC3)C(OC(C)=O)C(OC(C)=O)C1OC(C)=O (centres undefined) | GI50: 26.1 µM (inactive)

Item: `CC(=O)Nc1ccc(S(=O)(=O)NN(C)S(=O)(=O)c2ccc(C)cc2)cc1` | GI50: > 100 µM (inactive)

Item: `O=c1cccc2n1C[C@H]1CNC[C@H]2C1` | GI50: > 100 µM (inactive)
